- Measured Target: DRB1*0901 (DR9)
- Protocol Description: binding to purified HLA
This section presents binders with their documented pIC50 values.
Please treat pIC50 as minus the base-10 logarithm of the molar concentration.

The examples below pair each entry with its known result.
binder="GSISYPARYANAMAV [B. lentus 157]" measurement_label=pIC50 reported=5.83
binder="NGIEWAIANNMDVIN [BPN' Y217L .109]" measurement_label=pIC50 reported=7.37
binder="GTVAALNNSIGVLGV [BPN' Y217L .70]" measurement_label=pIC50 reported=7.34

API: the following record is the query input.
pIC50 reported for this binder SYPARYANAMAVGAT [B. lentus .160] : 6.79

Numbers sourced from patent US20080220450A1.
